system-under-test: DNA (cytosine-5)-methyltransferase 1 (Homo sapiens) (UniProt P26358)
Sequence (P26358 504-1616 limits assumed): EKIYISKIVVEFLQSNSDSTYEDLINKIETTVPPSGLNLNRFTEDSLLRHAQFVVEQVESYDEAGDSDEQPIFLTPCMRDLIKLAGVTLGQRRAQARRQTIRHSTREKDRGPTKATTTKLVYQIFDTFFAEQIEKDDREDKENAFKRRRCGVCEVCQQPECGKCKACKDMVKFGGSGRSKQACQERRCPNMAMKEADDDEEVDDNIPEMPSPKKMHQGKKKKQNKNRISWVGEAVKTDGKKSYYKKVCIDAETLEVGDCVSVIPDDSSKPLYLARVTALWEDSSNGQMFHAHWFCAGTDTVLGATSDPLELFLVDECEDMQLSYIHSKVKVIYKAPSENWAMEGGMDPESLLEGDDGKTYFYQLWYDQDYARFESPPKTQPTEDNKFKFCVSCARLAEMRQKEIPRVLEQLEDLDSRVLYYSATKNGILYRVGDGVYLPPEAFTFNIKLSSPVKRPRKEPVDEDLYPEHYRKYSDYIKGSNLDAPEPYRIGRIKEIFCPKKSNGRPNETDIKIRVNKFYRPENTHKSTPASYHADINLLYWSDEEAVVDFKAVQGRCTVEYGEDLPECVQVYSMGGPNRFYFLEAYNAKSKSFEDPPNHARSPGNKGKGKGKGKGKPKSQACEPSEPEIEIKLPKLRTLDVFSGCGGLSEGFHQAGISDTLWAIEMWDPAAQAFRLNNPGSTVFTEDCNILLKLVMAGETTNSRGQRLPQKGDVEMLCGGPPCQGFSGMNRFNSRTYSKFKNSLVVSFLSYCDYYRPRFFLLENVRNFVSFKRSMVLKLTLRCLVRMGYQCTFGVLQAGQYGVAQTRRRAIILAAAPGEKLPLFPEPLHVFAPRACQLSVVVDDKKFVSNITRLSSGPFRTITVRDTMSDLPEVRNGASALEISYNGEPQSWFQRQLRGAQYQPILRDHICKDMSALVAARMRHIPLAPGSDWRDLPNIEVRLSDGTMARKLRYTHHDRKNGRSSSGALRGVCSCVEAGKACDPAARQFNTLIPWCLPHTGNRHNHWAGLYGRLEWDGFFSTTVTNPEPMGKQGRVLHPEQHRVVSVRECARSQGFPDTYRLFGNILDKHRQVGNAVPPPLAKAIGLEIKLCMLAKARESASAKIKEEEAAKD
experiment: inhibition of DNA methyltransferase DNMT1 – biochemical, molecular beacon, fluorescence, HinP1I cleavage, uHTS, primary screen (AID 588458)
test-parameters: at 10 µM, stronger effect = higher value
Out of some 360,000 compounds screened, about 3,000 (0.83%) were called active. The sample as a whole holds a higher share of actives than the screen did.
experimental-endpoint: inhibition (reported as % activation of signal)

>>> value_measured("Cc1nc2sc(C(c3ccco3)N3CCC4(CC3)OCCO4)c(O)n2n1 (configuration not stated)")
"-3.42% (inactive)"
>>> value_measured("O=C(CC1C(=O)NCCN1Cc1ccc(-c2ccccc2)cc1)NCc1ccncc1 (configuration not stated)")
"-12.2% (inactive)"
>>> value_measured("N#Cc1ccccc1NC(=O)c1ccc2c(c1)OCO2")
"2.15% (inactive)"
>>> value_measured("CCN(Cc1ccncc1)C(=O)CCc1ccccc1")
"-1.63% (inactive)"
>>> value_measured("CCCn1c(C)cc(/C=C(\\C#N)C(=O)OCC(=O)Nc2cc(OC)c(OC)c(OC)c2)c1C")
"-3.49% (inactive)"

Report inhibition (reported as % activation of signal) for every entry below.
1. COC(=O)/C=C\C(=O)Nc1cccc([N+](=O)[O-])c1
2. Cc1cccc(NC(=S)N(CCN(C)C)C(C)c2ccco2)c1 (configuration not stated)
3. CN(C)/C=C(/C(=O)c1ccc(F)cc1)S(=O)(=O)c1ccc(F)cc1
4. CC(C)(C)N(Cc1ccccc1)C(=O)c1ccncc1
5. O=C(CN1CCCSc2ccccc21)N1CCN(S(=O)(=O)c2cccc(F)c2)CC1

1. 1.93% (inactive)
2. -0.09% (inactive)
3. 1.17% (inactive)
4. 82.6% (active)
5. 89.2% (active)

Report inhibition (reported as % activation of signal) for every entry below.
1. Cc1cnc(CN(C)C(=O)C2CCC(=O)N(CCc3cccc(F)c3)C2)[nH]1 (configuration not stated)
2. Cc1ccccc1-n1cc(CNC(=O)C2CCC(=O)N(C3CC3)C2)cn1 (configuration not stated)
3. CCC(C)(C)NC(=O)CN(C(=O)CCC(=O)Nc1cc(C)ccn1)c1ccc2c(c1)OCCO2
4. CN(C)/C=C(/C(=O)c1ccccc1)S(=O)(=O)c1ccc(Cl)cc1
5. CCOC(=O)/C(C#N)=C/c1ccc(OCC(=O)Nc2ccccc2)c(OC)c1
6. COc1ccc(C2=NOC(C(=O)NCc3ccco3)C2)cc1OC (configuration not stated)
7. Cc1ccccc1-n1cc(CNC(=O)CC2C(=O)NCCN2C/C=C/c2ccccc2)cn1 (configuration not stated)
8. O=C(CN1CCCSc2ccccc21)N1CCN(S(=O)(=O)c2ccccc2)CC1

1: 1.88% (inactive); 2: 0.34% (inactive); 3: -0.26% (inactive); 4: -1.72% (inactive); 5: 59.5% (active); 6: 1.36% (inactive); 7: 68.2% (active); 8: -0.81% (inactive)

Report inhibition (reported as % activation of signal) for every entry below.
1. COCCNC(=O)CN(Cc1ccco1)C(=O)CCC(=O)Nc1nccs1
2. O=C(COC(=O)c1cnc(Cl)c(Cl)c1)NCc1ccco1
3. Cc1cc(C(=O)OCC(=O)NCc2ccco2)c(C)n1-c1ccccc1
4. O=C(CN1CCN(S(=O)(=O)c2cccc(Cl)c2)CC1)N1CCCCC1

["0.73% (inactive)", "30.3% (inactive)", "55.9% (active)", "-1.19% (inactive)"]

----------
Would you kindly list inhibition (reported as % activation of signal) for each of these molecules?
system-under-test: DNA (cytosine-5)-methyltransferase 1 (Homo sapiens)
experiment: inhibition of DNA methyltransferase DNMT1 – biochemical, molecular beacon, fluorescence, HinP1I cleavage, uHTS, primary screen (AID 588458)
test-parameters: at 10 µM, stronger effect = higher value
Hit rate of the full screen: of about 360,000 compounds, about 3,000 (0.83%) were called active. This excerpt belongs to a sample that is enriched for actives.
Numbers only, in %.

The examples below pair each entry with its known result.
>>> value_measured("O=C(COC(=O)c1ccc(F)cc1F)Nc1ncccn1")
67.4
>>> value_measured("CCOC(=O)c1cccc(NC(=O)c2ccc(F)cc2F)c1")
2.92
>>> value_measured("O=C(CN1CCOCC1)N/N=C/c1ccc(-c2ccc(Br)cc2)o1")
-2.15
>>> value_measured("Nc1nnn(CC(=O)N/N=C/c2ccccc2)n1")
0.13

Report inhibition (reported as % activation of signal) for every entry below.
1. O=C(c1ccco1)N1CCN(C(=O)C2CCCN(S(=O)(=O)c3cccc4nsnc34)C2)CC1 (configuration not stated)
2. CCOC(=O)C1CCCN(C(=O)CSc2nnc3nc(C)cc(C)n23)C1 (configuration not stated)
3. COc1cccc(C(=O)Nc2ccc3nc4n(c(=O)c3c2)CCCCC4)c1

1: 0.5; 2: 0.98; 3: 3.72

Report inhibition (reported as % activation of signal) for every entry below.
1. O=C(Nc1nccs1)C1CCN(S(=O)(=O)c2ccc(Cl)c(C(F)(F)F)c2)CC1
2. Cc1oc(CC(C)C)c(CN2CCCC2)c1C(=O)O
3. COCCNC(=O)CCCn1c(=O)c2ccccc2n(Cc2cccc([N+](=O)[O-])c2)c1=O
4. O=C(NCCCN1CCOCC1)c1ccccc1NS(=O)(=O)c1ccc(F)cc1
5. Cc1ccc(NC(=O)OCCNC(=O)c2ccncc2)cc1

-0.42
-0.29
-1.32
0.01
0.6

Report inhibition (reported as % activation of signal) for every entry below.
1. COc1cc(C(C)=O)ccc1OC(C)C(=O)Nc1ccc(S(=O)(=O)N2CCCC2)cc1 (configuration not stated)
2. CCC(C)Cn1c(O)cc2nn(-c3nc4ccccc4s3)c(=O)c-2c1C (configuration not stated)
3. O=C(CN1CCN(c2ncccn2)CC1)Nc1ccccc1C(F)(F)F
4. C[C@H]1CN([C@@H](C)CO)C(=O)CCCn2cc(nn2)CO[C@@H]1CN(C)S(=O)(=O)c1ccccc1C#N
5. O=C(COC(=O)CSc1ccccc1)Nc1ccc(F)cc1F
6. COc1ccc(NC(=O)CN(C)C(=O)/C=C/c2cn(Cc3ccccc3)nc2-c2cccnc2)cc1

1: -3.33; 2: 52.2; 3: 1.55; 4: 8.79; 5: -0.57; 6: 2.58

Report inhibition (reported as % activation of signal) for every entry below.
1. CCC(=O)Nc1ccc(-c2ccc(N3CCCCC3)nn2)cc1
2. O=C(Nc1ccc(Cl)cc1)c1cccc(OC(=S)N2CCOCC2)c1
3. COC(=O)c1ccc(C2NC(=O)NC(C)=C2C(=O)N(C)C)cc1 (configuration not stated)
4. O=C(COC(=O)/C=C/c1cn(-c2ccccc2)nc1-c1cccnc1)Nc1ccc(Cl)cc1Cl

1: -8.26; 2: 0.14; 3: 0.97; 4: 56

----------
system-under-test: DNA (cytosine-5)-methyltransferase 1 (Homo sapiens) (UniProt P26358)
experiment: inhibition of DNA methyltransferase DNMT1 – biochemical, molecular beacon, fluorescence, HinP1I cleavage, uHTS, primary screen (AID 588458)
test-parameters: at 10 µM
Among all 360,000 compounds or so, about 3,000 (0.83%) were called active. No stated cut-off is given here; in the data, active means inhibition above about 50%; inactive means the rest. Many of the other results were omitted from the sample, so actives are more common in it than they were.
Answer with one of the outcomes active, inactive

Observe how each entry below is paired with its result.
>>> assigned_class("OC[C@H]1O[C@@H](c2nc(-c3nc(-c4ccc(F)cc4)no3)cs2)[C@H](O)[C@@H](O)[C@H]1O")
"inactive"
>>> assigned_class("COc1ccc(S(=O)(=O)N2CCC(C(=O)OCC(=O)c3ccccc3)CC2)cc1[N+](=O)[O-]")
"inactive"
>>> assigned_class("CC(C)C[C@H](NC(=O)C1CC(=O)N(c2ccc3c(c2)OCCO3)C1)C(=O)NC1CCCC1 (stereo not given in full)")
"inactive"
>>> assigned_class("CCOc1ccc(-n2cnnn2)cc1S(=O)(=O)N1CCC(C)CC1C (stereo not given)")
"inactive"

# outcome recorded in this test, key = `O=C(OCC(=O)N1CCCC1=O)c1cc(S(=O)(=O)N2CCOCC2)ccc1Cl`
inactive

Repeat with `CCN1CCN(C(=O)N[C@@H](C(=O)N[C@@H]2C(=O)N3C(C(=O)O)=C(CSc4nnnn4C)CS[C@H]23)c2ccc(O)cc2)C(=O)C1=O`
inactive

----------
system-under-test: DNA (cytosine-5)-methyltransferase 1 (Homo sapiens)
experiment: inhibition of DNA methyltransferase DNMT1 – biochemical, molecular beacon, fluorescence, HinP1I cleavage, uHTS, primary screen (AID 588458)
test-parameters: at 10 µM
Among all 360,000 compounds or so, about 3,000 (0.83%) were called active. No stated cut-off is given here; in the data, active means inhibition above about 50%; inactive means the rest. Only a selection was taken, and actives are over-represented in it overall.
Answer with one of the outcomes active, inactive

Observe how each entry below is paired with its result.
>>> assigned_class("CCOC(=O)C1=C(O)/C(=C/c2ccc(OCC(=O)Nc3ccc(C)cc3)cc2)N=C1C")
"inactive"
>>> assigned_class("O=C(Nc1nnc(SCc2ccccc2Cl)s1)c1cccc([N+](=O)[O-])c1")
"inactive"
>>> assigned_class("CCc1ccc(NC(=O)C(=O)NNC(=O)c2cccs2)cc1")
"inactive"
>>> assigned_class("COc1ccc(NC(=O)CCCC(=O)c2ccccc2)cc1")
"inactive"
>>> assigned_class("O=C(COC(=O)CCc1c[nH]c2ccccc12)Nc1cccc(Cl)c1")
"inactive"

# outcome recorded in this test, key = COc1ccc(S(=O)(=O)N2CCCCC2c2cc(C(=O)NCc3ccc(F)cc3)no2)cc1 (stereo not drawn)
inactive

Repeat with `Cc1ccc(-c2nnc(-c3ccc(NC(=O)c4cccs4)cc3)o2)cc1`
active

Repeat with `CCN(CC(=O)Nc1ccc(OC)cc1)C(=O)c1ccc(=O)n(Cc2ccccc2)n1`
inactive

Repeat with `Cc1ccc2[nH]c(=O)c(CN3CCCCC3)c(-c3ccccc3)c2c1`
inactive

Repeat with COc1cccc(N2CCN(C(=O)C3CCCN(S(=O)(=O)c4cnc[nH]4)C3)CC2)c1 (stereo not drawn)
inactive

Repeat with CCCNC(=O)C1(C)CCN1C(=O)Cc1ccc(-c2ccccc2)cc1 (stereo not drawn)
inactive

Repeat with `CSc1nc(-c2ccco2)nn1C(=O)c1ccccc1Cl`
inactive

Repeat with `Cc1ccc(OCC(=O)Nc2ccc(-c3nnc(-c4ccco4)o3)cc2)cc1`
active
